Where do these numbers come from? They come from ChEMBL document CHEMBL4610000.

CLint scaled listing for selected molecules.
- assay.name: Intrinsic clearance in rat microsomes
- Format: ADME, Microsome
Give your result in mL/min/kg as a bare value.

Take a look at these entries with their results.
- Cn1nnc2ccc(C(=O)NC3CN(c4cc(Cl)ncc4Cl)C3)cc21: 10
- Cc1c2cc(C(=O)NC3CN(c4cc(Cl)ncc4Cl)C3)ccc2nn1C: 28
- Cn1nnc2ccc(C(=O)NC3CN(c4cc(Cl)ncc4Cl)C3)c(N)c21: 120

Now consider a different molecule.
Query: What value of CLint scaled has been reported for the following molecule? Cc1c2c(N)c(C(=O)NC3CN(c4cc(Cl)ncc4Cl)C3)ccc2nn1C
Result: 180
